Molecular target: T1, human IL-23R endogenously expressed on DB cells (human, UniProt Q5VWK5 24-629)
T1 sequence (looked up): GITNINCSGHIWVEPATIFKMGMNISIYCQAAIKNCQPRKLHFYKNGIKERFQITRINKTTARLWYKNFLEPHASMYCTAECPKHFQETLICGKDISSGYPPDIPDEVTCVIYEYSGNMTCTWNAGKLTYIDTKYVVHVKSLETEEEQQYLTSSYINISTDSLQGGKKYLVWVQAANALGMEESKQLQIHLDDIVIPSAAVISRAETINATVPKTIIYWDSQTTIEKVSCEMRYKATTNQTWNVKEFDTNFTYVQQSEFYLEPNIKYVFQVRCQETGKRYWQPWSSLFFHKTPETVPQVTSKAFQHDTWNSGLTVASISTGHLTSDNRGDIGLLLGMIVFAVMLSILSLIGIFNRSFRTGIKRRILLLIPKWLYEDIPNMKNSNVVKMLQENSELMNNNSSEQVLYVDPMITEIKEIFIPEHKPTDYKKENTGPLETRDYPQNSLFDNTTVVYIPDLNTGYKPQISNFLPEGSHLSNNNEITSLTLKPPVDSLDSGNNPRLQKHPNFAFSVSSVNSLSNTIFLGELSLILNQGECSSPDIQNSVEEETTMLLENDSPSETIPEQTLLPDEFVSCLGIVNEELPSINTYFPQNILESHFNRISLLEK
Test: cell-based or functional assay
*1 amine or outer side, *2 acyl side, *3 side chain or, on linkers, in order; H or OH if unused. Bridges are numbered along the chain shown (N, C = ends). [ ]: non-standard residue; d: D form. 4‑Aminomethyl‑phenylacetyl = 4-aminomethyl-phenylacetyl unit, its amine closes the lactam, O=C(Cc1ccc(CN[*:1])cc1)[*:2]; 2Nal = N[C@@H](Cc1ccc2ccccc2c1)C(=O)O; AEF = NCCOc1ccc(C[C@H](N)C(=O)O)cc1; 3Pal = N[C@@H](Cc1cccnc1)C(=O)O; αMeL = CC(C)C[C@](C)(N)C(=O)O; Dab = NCC[C@H](N)C(=O)O; Sar = CNCC(=O)O
Recorded measurements of hIL-23 (pSTAT3) antagonist IC50, one per entry
Report as a plain number; the unit pM is understood.

Use the examples below as a reference point.
Task item: For the binder shown here, [4‑Aminomethyl‑phenylacetyl]SEWQ[Dab][AEF][2Nal][αMeL]E[Dab][3Pal]-NHMe (lactam N-10, 3-6) [Compound 8] , give the reported hIL-23 (pSTAT3) antagonist IC50.
Reply: 53

Task item: Can you handle [4‑Aminomethyl‑phenylacetyl]SEWQ[Dab][AEF][2Nal][αMeL]E[Dab][3Pal]-NH2 (lactam N-10, 3-6; SMILES CC(C)C[C@]1(C)NC(=O)[C@H](Cc2ccc3ccccc3c2)NC(=O)[C@H](Cc2ccc(OCCN)cc2)NC(=O)[C@@H]2CCNC(=O)CC[C@H](NC(=O)[C@H](CO)NC(=O)Cc3ccc(cc3)CNC(=O)CC[C@@H](C(=O)N[C@@H](CCN)C(=O)N[C@@H](Cc3cccnc3)C(N)=O)NC1=O)C(=O)N[C@@H](Cc1c[nH]c3ccccc13)C(=O)N[C@@H](CCC(N)=O)C(=O)N2) [Ref 122] next?
Reply: 28

New cases:
Task item: For the binder shown here, [4‑Aminomethyl‑phenylacetyl]SEWQ[Dab][AEF][2Nal][αMeL]E[Dab][3Pal][Sar]-NH2 (lactam N-10, 3-6; SMILES CC(C)C[C@]1(C)NC(=O)[C@H](Cc2ccc3ccccc3c2)NC(=O)[C@H](Cc2ccc(OCCN)cc2)NC(=O)[C@@H]2CCNC(=O)CC[C@H](NC(=O)[C@H](CO)NC(=O)Cc3ccc(cc3)CNC(=O)CC[C@@H](C(=O)N[C@@H](CCN)C(=O)N[C@@H](Cc3cccnc3)C(=O)N(C)CC(N)=O)NC1=O)C(=O)N[C@@H](Cc1c[nH]c3ccccc13)C(=O)N[C@@H](CCC(N)=O)C(=O)N2) [Compound 9] , give the reported hIL-23 (pSTAT3) antagonist IC50.
Reply: 25

The reported numbers originate from patent EP4471049A1.
